Tested on: Chordin-like protein 2 (CHRDL2)
Assay: CHRDL2 small-molecule binders, primary screen, biochemical, small-molecule microarray, 635 nm fluorescence (AID 1126);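 also: printed compound slides probed with Chrdl2 protein at 4 µg/mL for 1 h at 4 C; score merges 667 nm emission intensity with signal to noise over three replicate slides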
Details: small-molecule microarray binding, fluorescence 635 nm; higher = more signal
Reported composite z-score values follow for various molecules
Simply state the number, no unit and no words.

Sample records with composite z-score:
Ask: Record request: composite z-score value, item `COC(=O)[C@@]1(Cc2ccccc2)[C@H]2c3cc(C(=O)N4CCCC4)n(Cc4ccc(C)o4)c3C[C@H]2CN1C(=O)c1ccccc1`
Reply: -0.589

Ask: Again, but for `CC(C)(C)OC(=O)CC[C@@]1(C(=O)NCCN2CCOCC2)N=C(c2ccc(OCCCO)cc2)O[C@@H]1c1ccccc1`
Reply: -0.0233

Ask: Param item: `CC(C)NC(=O)[C@@H]1c2ccccc2C(=O)N(Cc2ccccc2)[C@H]1c1ccc(CO)cc1`
Reply: -1.38

Ask: What would you report for `O=C1c2ccccc2[C@@]2(Cc3ccccc3N(Cc3ccccc3)C2=O)[C@H](c2ccc(CO)cc2)N1C1CCCCC1` ?
Reply: 0.685

Ask: Also, `O=C(CS)NCCCCCCNC(=O)[C@@H]1C[C@@H]2C(=O)N3CCC[C@H]3C(=O)N2[C@@H]1c1ccc(O)cc1` please.
Reply: 0.361

***
Ask: Quick one: composite z-score of COc1ccc(C(O)C2C=CC3C(=O)N(c4ccccc4)C(=O)C3N2Nc2ccc([N+](=O)[O-])cc2)cc1OCc1ccccc1 (configuration not stated) ?
Reply: 0.471

Ask: Same lookup for `C=C(COC)/C(=C/C[C@H](OC(=O)c1ccncc1)c1cccc(OCCO)c1)c1cc(C(=O)OC)ccc1OC` , please.
Reply: -0.386

====

System: Neuregulin-1 EGF-like domain
Test: binders of neuregulin-1 EGF-like domain, primary screen, biochemical, small-molecule microarray, 635 nm fluorescence (AID 1081);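 also: binding of the protein to compounds printed on small-molecule microarray slides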
Details: small-molecule microarray binding, higher = more signal
composite z-score values for the compounds below.

Known composite z-score results, listed for orientation:
Ask: Name the recorded composite z-score for `O=C/C=C/c1ccc2c(c1)OCO2` .
Reply: 0.0106

Ask: Then this compound: CN1C(=O)C2C=CC(C(O)c3ccccn3)N(Nc3ccccc3)C2C1=O (configuration not stated)
Reply: 0.684

Ask: Repeat with CCC(CC)C(O)C1C=CC2C(=O)N(c3ccccc3)C(=O)C2N1Nc1ccc(C#N)cc1 (configuration not stated)
Reply: 1.29

Ask: Repeat for the following compound: O=C1OCCC=C[C@H]2OC34C=CCN(Cc5ccccc5)C(=O)[C@H]3N(CCCCCCO)C(=O)[C@@H]4C12 (some centres not stated)
Reply: 0.92

Ask: Okay, and `CCOC(=O)C1=C[C@@H](CC)N(S(=O)(=O)c2ccc(C)cc2)[C@H]1c1ccccc1` ?
Reply: 0.919

Others:
Ask: Look up composite z-score for this compound: `CC(C)N1C(=O)[C@@]2(c3ccc([N+](=O)[O-])cc3)CC(=O)N(CC34CC5CC(CC(C5)C3)C4)[C@@H]2c2ccc(CO)cc21`
Reply: -0.867

Ask: Also need `Cc1ccc(F)cc1S(=O)(=O)N[C@@H]1CCN(Cc2ccc(-c3ccccc3)cc2)C1` , thanks.
Reply: 1.07

Ask: Cool, now `COc1ccc([Si](C)(C)[C@@H]2[C@@H](CC(=O)N3CCC[C@H]3CO)O[C@]3(C(=O)N(C)c4c(Br)cc(C)cc43)[C@H]2C)cc1`
Reply: 0.9

Ask: Repeat with `C[C@]1(C(=O)NCc2ccccc2)c2ccccc2C(=O)N(Cc2ccc(OC(F)(F)F)cc2)[C@H]1c1ccc(CO)cc1`
Reply: 0.711

Ask: Try the compound `CC(C)CNC(=O)[C@@]1(c2ccc([N+](=O)[O-])cc2)CC(=O)N(CC23CC4CC(CC(C4)C2)C3)[C@@H]1c1ccc(CO)cc1`
Reply: 1.19

Ask: Further, for `[N-]=[N+]=Nc1ccccc1[C@@H]1OC(c2ccc(OCCCO)cc2)=N[C@]1(CCS(=O)(=O)c1ccccc1)C(=O)N1CCOCC1` ?
Reply: 1.24

Ask: Same for `CC(=CC1CCCCC1)[C@@H](NC(=O)c1ccc(C(F)(F)F)cc1)c1ccc(-c2ccccc2)cc1`
Reply: -0.54

Ask: And then `COc1ccc([Si](C)(C)[C@H]2[C@H](CCn3cc(CCO)nn3)O[C@@]3(C(=O)N(Cc4ccc(N5CCOC5=O)cc4)c4ccccc43)[C@@H]2C)cc1` , what is it?
Reply: 1.07

Ask: CCCCCN1CC=CC23O[C@@H]4C=CCOC(=O)[C@@H]4[C@H]2C(=O)N(CCCO)[C@@H]3C1=O (some centres not stated) ?
Reply: 1.27

Ask: And for `O=C1C[C@@](C(=O)NC2CC2)(c2ccc([N+](=O)[O-])cc2)[C@@H](c2ccc(CO)cc2)N1CC12CC3CC(CC(C3)C1)C2` ?
Reply: 0.745

Ask: // next record `C=C(COC)C(=O)CC[C@H](OC(C)=O)c1cccc(OCCO)c1`
Reply: -0.208

Ask: One more compound: `COc1cc2c(cc1OC)CN(C(=O)[C@@H]1[C@H]3C(=O)O[C@H](c4ccccc4)[C@H](c4ccccc4)N3[C@H](c3ccccc3OCCO)[C@@]13C(=O)Nc1ccc(C#CCNC(N)=O)cc13)CC2`
Reply: 1.07

Ask: Queued: CCN(CC)c1ccc(N2CC=CC34O[C@@H]5/C=C\CCCOC(=O)C5[C@H]3C(=O)N(C(CO)C(C)C)[C@@H]4C2=O)cc1 (some centres not stated)
Reply: 0.897

Ask: Quick one: CC(C)N1CC=CC23O[C@@H]4C=CCOC(=O)[C@@H]4[C@H]2C(=O)N(CCO)[C@@H]3C1=O (some centres not stated)
Reply: 1.02

Ask: Also need `CCC[C@@H]1C=C(C(=O)O)[C@H](c2ccc(C)cc2)N1S(=O)(=O)c1ccc(C)cc1` , thanks.
Reply: 1.26
